Kindly state MFI at 0.032 nM for each of the entries shown.
Target: human delta-like ligand 3 (DLL3) on SHP77 cells (human) (UniProt Q9NYJ7)
Sequence (Q9NYJ7 27-618, stated change not applied): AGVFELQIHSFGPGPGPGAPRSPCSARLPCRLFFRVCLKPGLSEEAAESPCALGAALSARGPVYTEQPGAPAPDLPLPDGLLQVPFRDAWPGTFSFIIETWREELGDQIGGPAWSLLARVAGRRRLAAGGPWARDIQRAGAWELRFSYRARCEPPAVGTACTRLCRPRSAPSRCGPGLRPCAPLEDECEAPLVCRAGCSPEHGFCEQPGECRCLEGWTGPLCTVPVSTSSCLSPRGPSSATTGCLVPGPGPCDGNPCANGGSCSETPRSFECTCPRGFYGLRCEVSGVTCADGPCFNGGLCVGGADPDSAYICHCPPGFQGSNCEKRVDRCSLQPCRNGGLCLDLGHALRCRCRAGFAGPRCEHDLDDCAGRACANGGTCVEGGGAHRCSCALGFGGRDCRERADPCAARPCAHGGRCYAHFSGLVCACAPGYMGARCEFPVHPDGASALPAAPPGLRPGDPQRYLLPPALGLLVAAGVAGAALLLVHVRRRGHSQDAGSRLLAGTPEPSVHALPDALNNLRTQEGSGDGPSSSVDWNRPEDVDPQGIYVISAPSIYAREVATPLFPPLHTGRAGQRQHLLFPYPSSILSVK
Assay: FACS on SHP77 cells
Your answer is read as MFI, so omit the unit and give the number.

[in] Which MFI at 0.032 nM is listed for Hab015VL5VH6a-hFc (scFv, part only; not given: scFv linker and human IgG1 Fc, V domains shown, not shown: another chain or arm of the molecule; a dimerising Fc or GST; small tags and cut ends) VL: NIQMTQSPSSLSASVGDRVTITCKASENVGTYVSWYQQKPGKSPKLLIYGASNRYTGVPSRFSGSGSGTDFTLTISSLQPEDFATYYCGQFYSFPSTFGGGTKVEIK VH: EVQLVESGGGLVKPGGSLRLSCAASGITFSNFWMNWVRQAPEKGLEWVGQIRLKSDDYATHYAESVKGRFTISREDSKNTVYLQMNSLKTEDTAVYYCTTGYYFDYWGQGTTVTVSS ?
[out] 171

[in] Quick check: MFI at 0.032 nM of BI3 (antibody, human IgG1, kappa, V domains shown) VH: QVQLVQSGAEVKKPGASVKVSCKASGYTFTSYYVHWVRQAPGQGLEWMVIINPGGGTTSYAQKFLGRVTMTRDTSTNTVYMELKSLRSEDTAVYYCARGEAVTGNYFYYGMDVWGQGTTVTVSS VL: DIQMTQSPSAMSASVGDRVTITCRASQGISNYLVWFQQKPGKAPKRLIYAVSSLYSGVPSRFSGSGSGTEFTLTISSLQPEDFATYYCLQHDSYPYTFGQGTKLEIKR ?
[out] 110

[in] // MFI at 0.032 nM lookup, key: Hab014VL1VH2-hFc (scFv, part only; not given: VL-VH linker and human IgG1 Fc, V domains shown, not shown: another chain or arm of the molecule; a dimerising Fc or GST; small tags and cut ends) VL: DIQMTQSPSSLSASVGDRVTITCKASEDIYNRLAWYQQKPGKVPKLLISGATSLETGVPSRFSGSGSGTDFTLTISSLQPEDVATYYCQQYWSLPWTFGGGTKVEIK VH: EVQLVQSGAEVKKPGASVKVSCKASGYTFTDYYMNWVRQAPGQRLEWMGDINPNHGDTGYNQKFTGRVTLTVDKSASTAYMELSSLRSEDTAVYYCARNFFYYGTTYGWYFDVWGQGTTVTVSS
[out] 116
